log Kp values, listed per item
# System: Zone of skin
# run_description: Permeability coefficient in human skin
// return a plain number; no unit text

In the examples that follow, each entry is paired with its recorded log Kp.
[
  {
    "compound": "CN1C(C(=O)Nc2ccccn2)=C(O)c2ccccc2S1(=O)=O",
    "result": -6.11
  },
  {
    "compound": "c1ccc2cnccc2c1",
    "result": -5.34
  },
  {
    "compound": "CN1CC[C@]23c4c5ccc(O)c4O[C@H]2C(=O)CC[C@H]3[C@H]1C5 [HYDROMORPHONE]",
    "result": -8.13
  }
]

Reported log Kp ( `CCC1(c2ccccc2)C(=O)NC(=O)NC1=O` ) = -6.6

// log Kp lookup, compound = `O=C(O)c1ccccc1` , result: -5.16

----------
# Tested on: Zone of skin
# run_description: Permeability coefficient in human skin
observation_type: log Kp

[
  {
    "smiles_representation": "Cn1c(=O)c2c(ncn2C)n(C)c1=O",
    "log Kp": -7.3
  },
  {
    "smiles_representation": "Nc1ccc(N)cc1",
    "log Kp": -7.22
  },
  {
    "smiles_representation": "COc1ccc2c(c1)[C@]13CCCC[C@@H]1[C@H](C2)N(C)CC3",
    "log Kp": -4.55
  }
]

We next turn to a different molecule, shown below.
Input `OC[C@@H](O)[C@@H](O)[C@H](O)[C@H](O)CO` . Output log Kp: -7.79

----------
# Lookup of reported log Kp keyed by entry
# Test system: Zone of skin
# run_description: Permeability coefficient in human skin
No unit in the answer, please; the number alone is enough.

Some molecules with known log Kp results, for comparison:
[
  {
    "molecule": "C[C@]12CCC(=O)C=C1CC[C@@H]1[C@@H]2CC[C@@]2(C)[C@H]1CC[C@]2(O)C(=O)CO [CORTODOXONE]",
    "tgt": "Zone of skin",
    "log Kp": -7.7
  },
  {
    "molecule": "CCCCCC(=O)OCC(=O)[C@@]1(O)CC[C@H]2[C@@H]3CCC4=CC(=O)CC[C@]4(C)[C@H]3[C@@H](O)C[C@@]21C",
    "tgt": "Zone of skin",
    "log Kp": -5.31
  },
  {
    "molecule": "CC(=O)[C@H]1CC[C@H]2[C@@H]3CC=C4C[C@@H](O)CC[C@]4(C)[C@H]3CC[C@]12C [PREGNENOLONE]",
    "tgt": "Zone of skin",
    "log Kp": -6.11
  },
  {
    "molecule": "C1COCCN1 [MORPHOLINE]",
    "tgt": "Zone of skin",
    "log Kp": -7.42
  },
  {
    "molecule": "Oc1ccc2ccccc2c1 [BETANAPHTHOL]",
    "tgt": "Zone of skin",
    "log Kp": -5.12
  }
]

# log Kp of CC(C)=CCN1CCC2(C)c3cc(O)ccc3CC1[C@H]2C (single isomer, unassigned) [(+)-PENTAZOCINE] = -5.76

Documented log Kp of C[C@]12CC[C@@H]3c4ccc(O)cc4CC[C@H]3[C@@H]1CCC2=O [ESTRONE] : -6.7

Reported log Kp of O=C(NCCO[N+](=O)[O-])c1cccnc1 [NICORANDIL] : -7.22
